- experimental_target: Cyp40 (Homo sapiens, UniProt Q08752)
- Sequence (Q08752 1-183): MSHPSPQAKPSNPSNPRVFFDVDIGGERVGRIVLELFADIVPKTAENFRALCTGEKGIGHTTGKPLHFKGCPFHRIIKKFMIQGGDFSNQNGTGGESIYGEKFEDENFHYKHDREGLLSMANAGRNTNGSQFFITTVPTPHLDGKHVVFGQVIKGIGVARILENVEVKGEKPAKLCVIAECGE
- assay_method_text: Chymotrypsin coupled prolyl-isomerase assay
- applied_conditions: read-out: Wild-Type Cyclophilin Prolyl Isomerase Inhibition IC50 Values, Cyp40; wild-type Cyp40
- Description: Adapting a previously described protocol, with an Agilent Bravo Velocity 11 with a 384ST head, 90 µL assay buffer (25 mM HEPES pH 7.3, 100 mM NaCl, 0.01% Triton X-100) containing 5.28 nM cyclophilin was added into a flat, clear-bottom, black 384-well plate pre-chilled in a Corning CoolBox at 2–3 °C. […] Raw fluorescence data was analyzed by non-linear regression analysis with Prism v.9 by fitting one-phase association curves to each well. […]
pIC50: −log10 of the molar value.
compounds and their reported pIC50
property_measured: pIC50

{"compound": "C[N+]1=C(C=CC=CC=C2N(CCCCCC(=O)NCCNC(=O)C3CCNC(=O)C=CC(=O)N4CCCC(Cc5ccccc5)(C4)C(=O)NC(Cc4ccc(-c5ccc(C(CC(=O)O)CC(=O)O)cc5)cc4)C(=O)NCc4ccccc4CC(=O)N3)c3ccccc3C2(C)C)C(C)(C)c2ccccc21 (stereo not drawn) [Compound B53-Cy5]", "reading": "< 5.70"}
{"compound": "NCCOCCNC(=O)[C@@H]1CCNC(=O)/C=C/C(=O)N2CCC[C@](Cc3ccccc3)(C2)C(=O)N[C@@H](Cc2ccc(-c3ccc(CC(=O)O)cc3)cc2)C(=O)NCc2ccccc2CC(=O)N1", "reading": 6.00}
{"compound": "C[N+]1=C(C=CC=CC=C2N(CCCCCC(=O)NCCNC(=O)C3CCNC(=O)C=CC(=O)N4CCCC(Cc5ccccc5)(C4)C(=O)NC(Cc4ccc(-c5ccc(C(CC(=O)O)CC(=O)O)cc5)cc4)C(=O)NCc4ccccc4CC(=O)N3)c3ccccc3C2(C)C)C(C)(C)c2ccccc21 (stereo not drawn) [*B53-Cy5]", "reading": "< 5.00"}
{"compound": "CC(=O)c1ccc(-c2ccc(C[C@@H]3NC(=O)[C@]4(Cc5ccccc5)CCCN(C4)C(=O)/C=C/C(=O)NCC[C@@H](C(=O)NCCOCCN)NC(=O)Cc4ccccc4CNC3=O)cc2)cc1", "reading": 7.22}
{"compound": "C[N+]1=C(C=CC=CC=C2N(CCCCCC(=O)NCCNC(=O)C3CCNC(=O)C=CC(=O)N4CCCC(Cc5ccccc5)(C4)C(=O)NC(Cc4ccc(-c5ccc(CC(C(=O)O)C(=O)O)cc5)cc4)C(=O)NCc4ccccc4CC(=O)N3)c3ccccc3C2(C)C)C(C)(C)c2ccccc21 (stereo not drawn) [*B52-Cy5]", "reading": "< 5.00"}
{"compound": "C[N+]1=C(C=CC=CC=C2N(CCCCCC(=O)NCCNC(=O)C3CCNC(=O)C=CC(=O)N4CCCC(Cc5ccccc5)(C4)C(=O)NC(Cc4ccc(-c5ccc(CC(C(=O)O)C(=O)O)cc5)cc4)C(=O)NCc4ccccc4CC(=O)N3)c3ccccc3C2(C)C)C(C)(C)c2ccccc21 (stereo not drawn) [Compound B52-Cy5]", "reading": "< 5.00"}
